Entries and their EC50
study system: T1, CRH (CT-Biotin) (human and mouse, biotin on the added C-terminal K (-K-Biotin))
T1 construct: also called Peptide 4 (CRH-Biotin); C-terminally biotinylated corticotropin-releasing hormone
T1 peptide: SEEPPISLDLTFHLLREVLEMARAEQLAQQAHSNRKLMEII
assay method text: ELISA, C-terminally biotinylated CRH on streptavidin-coated plate
Write the number in nM without appending the unit.

{"binder": "PR302335 (antibody, human IgG1, kappa, V domains shown, Mouse variable domains, expressed recombinantly with human IgG1 wildtype Fc; also called Series 8 mAb) VH: DVQLVESGGGLVQPGGSRKLSCAASGFTFSSFGMHWVRQAPEKGLEWVAYISSGSTIFYYADTVKGRFTISRDNPKNTLFLQMTSLRSEDTAMYYCARDITTATFAFWGQGTLVTVSA VL: DVVLTQTPLSLPVSLGDQVSISCRSSQNLLHNNGNTYLHWYLQKPGQSPRLLIYKVSNRFSGVPDRFSGSGSGTDFTLKITRVEAEDLGVYFCSQSTHIPWTFGGGTKLEIKR", "assay result": 0.016}

Field request: EC50 | item: PR302328 (antibody, human IgG1, kappa, V domains shown, Mouse variable domains, expressed recombinantly with human IgG1 wildtype Fc; also called Series 9 mAb) VH: EVKLVESGGGLVKPGGSLKLSCAASGFTFSSYAMSWVRQTPEKRLEWVASIRSGGTTYYPDSVKGRFTISRDNARNILYLQMSSLRSEDTAIYYCTRGIDWGQGTLVTVSA VL: NIVMTQTPKFLLVSAGDRVTITCKASQSVNNDVAWYQQKPGQSPKLLIYYASNRYTGVPDRFTGSGYGTDFTFTISTVQAEDLAVYFCQQDYSSWTFGGGTKLEIKR 0.03

Field request: EC50 | item: PR301780 (antibody, human IgG1, kappa, V domains shown, Mouse variable domains, expressed recombinantly with human IgG1 wildtype Fc; also called Series 7 mAb) VH: QIQLVQSGPELKKPGETVKISCKASGYTFTNFGLNWVKQAPGKGLKWMGWINTYTGEPTYTDDFKGRFAFSLETSASTAYLQINNLKKEDTATYFCARGTYRDDGAWFAYWGQGTLVTVSA VL: DVLMTQTPLSLPVSLGDQASISCRSSQIIVHSNGNTYLEWYLQKPGQSPKLLIYKVSNRFSGVPDRFSGSGSGTDFTLKISRVEAEDLGVYHCFQGSHVPWTFGGGTKLEIKR 0.03

Provenance of the data: patent US20260042834A1
